# assayed system: Thyrotropin receptor (Homo sapiens) (UniProt P16473)
# Sequence (P16473 whole entry, looked up): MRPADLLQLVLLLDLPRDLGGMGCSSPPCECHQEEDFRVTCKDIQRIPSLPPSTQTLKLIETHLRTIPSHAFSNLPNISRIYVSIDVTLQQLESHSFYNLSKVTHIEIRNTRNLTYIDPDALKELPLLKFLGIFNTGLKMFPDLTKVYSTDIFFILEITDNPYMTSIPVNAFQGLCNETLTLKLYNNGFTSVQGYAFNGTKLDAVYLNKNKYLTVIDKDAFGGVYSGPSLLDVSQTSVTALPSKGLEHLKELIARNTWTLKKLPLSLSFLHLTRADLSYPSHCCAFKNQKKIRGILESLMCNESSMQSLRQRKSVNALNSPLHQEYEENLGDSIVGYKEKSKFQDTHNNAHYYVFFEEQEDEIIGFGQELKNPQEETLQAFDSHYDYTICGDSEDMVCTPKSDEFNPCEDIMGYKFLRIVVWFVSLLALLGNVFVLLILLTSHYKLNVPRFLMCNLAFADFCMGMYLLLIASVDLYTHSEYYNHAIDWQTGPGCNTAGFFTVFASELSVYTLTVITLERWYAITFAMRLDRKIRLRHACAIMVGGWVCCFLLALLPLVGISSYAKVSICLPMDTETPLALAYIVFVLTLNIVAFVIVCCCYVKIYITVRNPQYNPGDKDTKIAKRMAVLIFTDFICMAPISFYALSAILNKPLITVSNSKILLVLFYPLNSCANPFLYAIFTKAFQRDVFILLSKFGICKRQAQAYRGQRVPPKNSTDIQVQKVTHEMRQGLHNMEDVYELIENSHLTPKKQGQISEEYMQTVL
# protocol details: qHTS for antagonists of the Thyroid Stimulation Hormone Receptor: Hit Validation in Primary Screen; note: nearly all actives have a fitted effect of over 80% in size
# setup conditions: TSHR-expressing cells, cAMP antagonist mode; series mostly up to 58 µM
Out of some 1,300 compounds screened, about 380 (29%) were called active. Roughly 37% stayed inconclusive and do not appear here. Calls come from the whole dose curve; as a rule, active = well fitted inhibition curve with a large enough effect; inconclusive = small, poorly fitted or top-dose-only effect; inactive = flat fitted curve, though single readings scatter. The list shows a part of the results.
Just give me one of these, please: Y (active), N (inactive)

Previously resolved entries follow.
COc1ccc(OC)c(C2=NOC(C(=O)NCC3CCCO3)C2)c1 (stereo not drawn) | N
COc1ccc(-c2nnc(CSc3nc4ccccc4c(=O)n3CC3CCCO3)o2)cc1OC (stereo not drawn) | N
O=c1nc(/C=C/c2ccccc2C(F)(F)F)cc(C(F)(F)F)[nH]1 | N
CC[n+]1ccc(/C=C/c2ccc(N(C)C)cc2)c2ccccc21 | Y
O=C(c1cccc(Cl)c1)N1CCN(Cc2ccc3c(c2)OCO3)CC1 | N

Query: What was the test verdict on COc1ccc(-n2nc(C(=O)NCC(=O)NCCCN3CCN(C)CC3)c3ccccc3c2=O)cc1 ?
Reply: N

Query: Per the assay record, what outcome was assigned to COc1ccc(N2C(=O)NC(NS(=O)(=O)c3ccc(Cl)cc3)(C(F)(F)F)C2=O)cc1 (stereo not drawn) ?
Reply: N

Query: Hi team, can someone confirm the assay call for CCc1ccc(NS(=O)(=O)c2cc3[nH]c(=O)c(=O)[nH]c3cc2C)cc1 ?
Reply: N

Query: Recorded call for O=c1cc(C(F)(F)F)[nH]c2ccc(OC(F)(F)F)cc12 ?
Reply: Y
